System: UO-31 renal
Assay: NCI-60 one-dose screen, 48 h
Conditions: 10 µM unless noted
About 83,000 compounds went through this panel and 20% of them were active in at least one assay; those are over-represented in the sample as a whole. Active and inactive are the calls of the source. Rule for the calls: active = growth percent below 10; inactive = the rest.
Classes to choose from: active, inactive

Worked cases, answers included:
{"compound": "Nc1c(C(=O)Nc2ccc(Cl)cc2)cc(-c2nc3ccccc3s2)c(=O)n1NS(=O)(=O)c1ccc(Cl)cc1", "group label": "inactive"}
{"compound": "COc1cc2nc(-c3ccc(C(F)(F)F)cc3)cc(OCCN3CCCC3)c2cc1OC", "group label": "inactive"}
{"compound": "CC(C)C1C2=C(NCCN1C(=O)Cc1ccccc1)C(C)(C)N(Cc1ccccc1)C2=O (stereo not given)", "group label": "inactive"}
{"compound": "CC(=O)Nc1ccc(C(=O)Nc2cc(-c3ccccc3)ccc2N)cc1", "group label": "inactive"}

Note: attention shifts to another entry.
Look up the recorded call for O=C(/C=C/c1ccc[nH]1)c1ccc(-n2ccc(C(F)(F)F)n2)cc1 in this test. active

---

Tested on: CCRF-CEM leukemia
Experiment: NCI-60 one-dose screen, 48 h
Settings: 10 µM unless noted
This is part of a sample that, as a whole, favours compounds with a hit. Of some 83,000 tested, about 20% had one in any assay. The source made the active and inactive calls. The calls were made as follows: active = growth percent below 10; inactive = the rest.
Classes to choose from: TRUE for active, FALSE for inactive

{"compound": "Nc1nnc(C(=O)c2cnc3n(c2=O)CCCCC3)s1", "group label": "FALSE"}
{"compound": "CC(=O)O[C@H]1CC[C@@]2(C)[C@@H](CC[C@@H]3[C@@H]2CC[C@@]2(C)[C@H]3CC[C@]2(O)C(C)=O)C1", "group label": "FALSE"}
{"compound": "NC(=O)C1(N2CCCCC2)CCN(CCCC(=O)c2ccc(F)cc2)CC1", "group label": "TRUE"}

Look up the recorded call for CC(=O)Nc1ccc(C(=O)Nc2cc(-c3ccccc3)ccc2N)cc1 in this test. FALSE

Look up the recorded call for CCc1nc(C)cn1C(=O)OCc1nc2nc(Cl)nc(N3CCOCC3)c2[nH]1 in this test. TRUE

Look up the recorded call for Cc1c2c(cc[n+]1Cc1ccc(F)cc1)c1ccc(OCc3cccc(F)c3)cc1n2Cc1cccc(F)c1 in this test. TRUE

---

Test system: HT29 colon
Test: NCI-60 one-dose screen, 48 h
Conditions: 10 µM unless noted
About 83,000 compounds went through this panel and 20% of them were active in at least one assay; those are over-represented in the sample as a whole. The source made the active and inactive calls. The calls were made as follows: active = growth percent below 10; inactive = the rest.
Classes to choose from: T (active), F (inactive)

Worked cases, answers included:
{"molecule": "O=S(=O)(O)c1cc(O)c2c(N=Nc3ccc(Nc4ccccc4)c4c(S(=O)(=O)O)cccc34)cc(S(=O)(=O)O)cc2c1", "group label": "F"}
{"molecule": "CCNC(=O)c1[nH]cc(-c2ccc(OC)cc2)c1-c1cc(OC)c(OC)c(OC)c1", "group label": "F"}
{"molecule": "COc1ccc(/C=N/C2=C(C#N)C(c3ccccc3[N+](=O)[O-])c3ccc4ccccc4c3O2)cc1 (centres undefined)", "group label": "F"}
{"molecule": "C[C@@H]1CN(Cc2ccc(/C=C/c3n[nH]c4ccc5nc(-c6cn[nH]c6C(F)(F)F)c6c(c5c34)CCCC6)cc2)C[C@H](C)O1", "group label": "T"}
{"molecule": "NC(=O)c1ccc[n+](CC(=O)N2CCN(c3cc4c(cc3F)c(=O)c(C(=O)O)cn4C3CC3)CC2)c1", "group label": "F"}
{"molecule": "NC(=S)N/N=C(\\c1ccc(Cl)cc1)C1CC1", "group label": "F"}

Look up the recorded call for Cc1c2c(cc[n+]1Cc1ccc(F)cc1)c1ccc(OCc3cccc(F)c3)cc1n2Cc1cccc(F)c1 in this test. T

Look up the recorded call for CCCN=C(N)c1ccc(NC(=O)c2ccc(C(=O)Nc3ccc(C(N)=NCCC)cc3)cc2)cc1 in this test. F

Look up the recorded call for COc1cc2nc(-c3ccc(C#N)cc3)[nH]c(=O)c2cc1OC in this test. F

---

System: SK-MEL-5 melanoma
Experiment: NCI-60 one-dose screen, 48 h
Settings: 10 µM unless noted
About 83,000 compounds went through this panel and 20% of them were active in at least one assay; those are over-represented in the sample as a whole. Activity calls are given as the source filed them. The calls were made as follows: active = growth percent below 10; inactive = the rest.
Classes to choose from: active, inactive

Worked cases, answers included:
{"molecule": "CCCCCCCCCCCCCCCCCCOc1ccccc1N", "test target": "SK-MEL-5 melanoma", "group label": "inactive"}
{"molecule": "CC(=O)c1cc2c(N)c(C(=O)Nc3cncc4ccccc34)sc2nc1C", "test target": "SK-MEL-5 melanoma", "group label": "inactive"}

Look up the recorded call for NC(=O)c1cccc(-c2cc(C(N)=O)ccc2Cl)c1 in this test. inactive

Look up the recorded call for COc1cc(OC)c(/C=C/C(=O)c2ccc(Nc3ncnc4ccccc34)cc2)c(OC)c1 in this test. active

---

System: HCC-2998 colon
Experiment: NCI-60 one-dose screen, 48 h
Conditions: 10 µM unless noted
This is part of a sample that, as a whole, favours compounds with a hit. Of some 83,000 tested, about 20% had one in any assay. Calls of active or inactive are those of the source. Rule for the calls: active = growth percent below 10; inactive = the rest.
Classes to choose from: yes (active), no (inactive)

Look up the recorded call for Clc1nc(Cl)c2ncn(CCOCCn3cnc4c(Cl)nc(Cl)nc43)c2n1 in this test. yes

---

System: COLO 205 colon
Test: NCI-60 one-dose screen, 48 h (100 = growth as untreated, 0 = no growth, -100 = all killed)
Conditions: 10 µM unless noted
About 83,000 compounds went through this panel and 20% of them were active in at least one assay; those are over-represented in the sample as a whole.
measured metric: growth (%)
Number in %, nothing else.

The cases that follow already have their growth on record.
{"compound": "COc1ccc(NC(=O)c2sc3nc(C)c(C(=O)c4ccc(OC)cc4)cc3c2N)cc1", "test target": "COLO 205 colon", "measured metric": "growth", "quantitative readout": 42.9}
{"compound": "Cc1ccc(-c2c(Br)c(OC(=O)CO[C@@H]3C[C@H](C)CC[C@H]3C(C)C)c(-c3ccc(C)cc3C)c(Br)c2OC(=O)CO[C@H]2C[C@@H](C)CC[C@@H]2C(C)C)c(C)c1", "test target": "COLO 205 colon", "measured metric": "growth", "quantitative readout": 95.3}

Give its growth value. Item: CCCCCCC/C=C/[C@H]1O[C@]2(O)C(=O)C=C3C[C@@H](O[C@@H]4O[C@H](CO)[C@@H](O)C(O)[C@@H]4O)C[C@@H]3[C@H]2C=C1C (stereo partly drawn) 11.8

---

Tested on: T-47D breast
Assay: NCI-60 one-dose screen, 48 h (100 = growth as untreated, 0 = no growth, -100 = all killed)
Details: 10 µM unless noted
This is part of a sample that, as a whole, favours compounds with a hit. Of some 83,000 tested, about 20% had one in any assay.
Rule: growth of 50% or more gives criterion met; anything lower gives criterion not met.

{"structure string": "COc1cc(COC(=O)CCCCC[P+](c2ccccc2)(c2ccccc2)c2ccccc2)c(OC)c2c1OCO2", "group label": "criterion not met"}
{"structure string": "NC(=O)c1ccc[n+](CC(=O)N2CCN(c3cc4c(cc3F)c(=O)c(C(=O)O)cn4C3CC3)CC2)c1", "group label": "criterion met"}
{"structure string": "COc1cc2ncnc(Nc3ccc(C(=O)/C=C/c4ccc(C(F)(F)F)cc4F)cc3)c2cc1OC", "group label": "criterion met"}

Test whether the compound O=C(CCN1CCCC1)Nc1ccc2c(Nc3ccccc3)c3ccccc3nc2c1 records growth of 50% or higher. criterion not met

Test whether the compound O=C(NNc1nc(Cl)nc(N2CCN(C(c3ccccc3)c3ccccc3)CC2)n1)c1ccccc1 records growth of 50% or higher. criterion met

---

Tested on: HOP-92 NSCLC
Experiment: NCI-60 one-dose screen, 48 h (100 = growth as untreated, 0 = no growth, -100 = all killed)
Details: 10 µM unless noted
The panel holds about 83,000 compounds, 20% with a hit somewhere; the sample as a whole holds those more often.
measured metric: growth (%)
Number in %, nothing else.

The cases that follow already have their growth on record.
{"molecule": "Nc1nc(SN=Nc2ccc(S(N)(=O)=O)cc2)c2[nH]cnc2n1", "test target": "HOP-92 NSCLC", "growth [%]": -6.95}
{"molecule": "O=C(O)CCCCCCCCCCCCCCC(=O)O", "test target": "HOP-92 NSCLC", "growth [%]": 85.1}
{"molecule": "O=C1c2ccccc2-c2c1c1c(NCCCO)nc3ccccc3c1n2Cc1ccccc1", "test target": "HOP-92 NSCLC", "growth [%]": -33.4}

Give its growth value. Item: CCCCCCCC(=O)Nc1nc2[nH]c(CN3CCN(Cc4cccc(I)c4)CC3)c(CN3CCN(Cc4cccc(I)c4)CC3)c2c(=O)[nH]1 -67.3

Give its growth value. Item: CCCCCCC/C=C/[C@H]1O[C@]2(O)C(=O)C=C3C[C@@H](O[C@@H]4O[C@H](CO)[C@@H](O)C(O)[C@@H]4O)C[C@@H]3[C@H]2C=C1C (some centres undefined) 11.8

Give its growth value. Item: Cc1ccccc1C(c1ccccc1)c1ccccc1C 79.7
